target: hMeprin β (Homo sapiens)
Sequence (Q16820 62-701): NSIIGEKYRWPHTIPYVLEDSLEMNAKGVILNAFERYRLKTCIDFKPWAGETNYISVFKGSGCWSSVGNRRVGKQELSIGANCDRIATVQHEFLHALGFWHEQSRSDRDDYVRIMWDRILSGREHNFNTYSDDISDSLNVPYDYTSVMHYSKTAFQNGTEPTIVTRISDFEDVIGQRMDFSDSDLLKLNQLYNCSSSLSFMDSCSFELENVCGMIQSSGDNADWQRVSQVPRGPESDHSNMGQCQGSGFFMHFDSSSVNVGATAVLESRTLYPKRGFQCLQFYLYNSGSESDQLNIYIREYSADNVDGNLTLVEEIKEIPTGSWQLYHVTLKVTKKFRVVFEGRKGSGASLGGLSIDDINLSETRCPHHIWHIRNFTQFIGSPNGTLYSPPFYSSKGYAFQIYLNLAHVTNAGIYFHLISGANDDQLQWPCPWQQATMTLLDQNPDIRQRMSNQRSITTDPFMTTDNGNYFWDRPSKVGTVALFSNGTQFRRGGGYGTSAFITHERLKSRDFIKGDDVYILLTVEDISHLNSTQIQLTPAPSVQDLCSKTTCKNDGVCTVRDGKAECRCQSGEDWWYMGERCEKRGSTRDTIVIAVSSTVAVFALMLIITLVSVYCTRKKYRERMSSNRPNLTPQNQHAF
reported.metric: Ki (nM)
Please state the figure in nM; there is no need to write the unit.

-- ask Provide only the value of recorded Ki for O=C(CCc1c(-c2ccccc2)n[nH]c1-c1ccccc1)NO
-- reply 9350

-- ask Hello, please tell me recorded Ki for this one: O=C(Cc1c(-c2ccc3c(c2)OCO3)n[nH]c1-c1ccc(C(=O)O)cc1)NO
-- reply 93

-- ask Give recorded Ki. O=C(NO)C1Cc2ccccc2-c2[nH]nc(-c3ccccc3)c21 (stereo not shown)
-- reply 2530

-- ask Consider the molecule O=C(Cc1c(-c2cccc(C(=O)O)c2)n[nH]c1-c1ccc(Cl)c(O)c1F)NO . State its measured Ki.
-- reply 4
